Measured Kd, listed per entry for reference.
Target: T1, mouse RAGE (mRAGE) fused to EGFP, expressed on CHO cells (mouse, UniProt Q62151 23-402)
T1 construct: whole, on cells; also called CHO-mRAGE-EGFP; murine RAGE; not shown: EGFP from the pEGFP-N1 vector (Clontech), fused at the C-terminal (intracellular) end
T1 sequence (Q62151 23-402): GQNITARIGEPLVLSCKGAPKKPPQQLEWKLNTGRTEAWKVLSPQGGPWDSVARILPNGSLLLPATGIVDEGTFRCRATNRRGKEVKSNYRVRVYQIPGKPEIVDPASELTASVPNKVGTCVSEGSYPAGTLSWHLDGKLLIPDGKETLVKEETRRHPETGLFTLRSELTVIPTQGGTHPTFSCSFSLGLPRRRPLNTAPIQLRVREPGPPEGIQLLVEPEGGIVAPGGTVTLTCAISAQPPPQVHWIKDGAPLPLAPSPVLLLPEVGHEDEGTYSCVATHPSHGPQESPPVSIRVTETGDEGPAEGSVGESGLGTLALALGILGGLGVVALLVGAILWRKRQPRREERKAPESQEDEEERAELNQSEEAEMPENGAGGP
Assay: apparent Kd (Kd app), flow cytometry on CHO-mRAGE-EGFP cells
Protocol: The binding properties of VHHs with affinity for RAGE were tested using flow cytometry, and apparent affinities (K_{d app}) were determined. All experiments were performed in 96 well plates using 2×10⁵ cells/well, at 4° C. with shaking. […] Fluorescence levels were assessed using an Attune N×T flow cytometer (Thermo Fisher Scientific). The binding properties of VHH-siRNA conjugates with affinity for RAGE were tested using flow cytometry, and apparent affinities (K_{d app}) were determined. […]
QUANTITY_NAME: Kd (nM)

[
  {
    "BINDER": "VHH 2-siSOD1m (other, siRNA siSOD1m linked through an azido linker put by bacterial transglutaminase on the glutamine residue of the myc tag, then copper-free click chemistry, VHH-siRNA conjugate) VHH: QVQLVQSGGGLVQAGGSLRLSCAASGSVSSIYAMGWYRQAPGKQREWVTTITGRGITDYAASVKGRFTISRDTAKNAVYLQMNNLKPEDTARYYCKIDRRGYAPYWGQGTQVTVSSAAAEQKLISEEDLNGAAHHHHHHGS",
    "RESULT": 238
  },
  {
    "BINDER": "VHH 4-siSOD1m (other, siRNA siSOD1m linked through an azido linker put by bacterial transglutaminase on the glutamine residue of the myc tag, then copper-free click chemistry, VHH-siRNA conjugate) VHH: EVQLVESGGGLVQAGGSLRLSCVASGRTFSNYAMAWFRQAPGEEREFVARISWRGGRTSYADSVKGRFTISRDNAKNTVYLQMISLKPEDTAVYYCASEGGAFGGVYSATGSYDYWGQGTQVTVSSAAAEQKLISEEDLNGAAHHHHHHGS",
    "RESULT": 6.8
  },
  {
    "BINDER": "VHH 4 (VHH, also called sdAb VHH 4) VHH: EVQLVESGGGLVQAGGSLRLSCVASGRTFSNYAMAWFRQAPGEEREFVARISWRGGRTSYADSVKGRFTISRDNAKNTVYLQMISLKPEDTAVYYCASEGGAFGGVYSATGSYDYWGQGTQVTVSS",
    "RESULT": 32
  },
  {
    "BINDER": "VHH 5 (VHH, also called sdAb VHH 5) VHH: EVQLVESGGGLVQPGGSLRLSCAASGTIFSLNPMGWYRQAPGKQLELVALISDSGTANYADFVRGRFTISRDTTKKTLYLQMNSLEPEDTAVYYCRSTFAAGNFYWGQGTQVTVSS",
    "RESULT": 1490
  }
]
